- System: HCT-15
- assay_procedure: NCI tumour cell line growth inhibition, 48 h
# label = bin(measured GI50), where bins are category 1 (below 7 µM), category 2 (7 µM to below 30 µM), category 3 (30 µM or more)

[
  {
    "molecule": "CC(C)(C)[C@H]1CO[C@]2(C)[C@@H]3C[C@@H]3C(=O)N12",
    "system_tested": "HCT-15",
    "assigned_class": "category 3"
  },
  {
    "molecule": "[BH3-][P+]1(CC[P@@+]([BH3-])(c2ccccc2)c2ccccc2OC)[C@@H](C)[C@@H](O)[C@H](O)[C@@H]1C (stereo partly specified)",
    "system_tested": "HCT-15",
    "assigned_class": "category 2"
  },
  {
    "molecule": "COc1cc2cnc3c4cc(O)ccc4ccc3c2cc1OC",
    "system_tested": "HCT-15",
    "assigned_class": "category 3"
  },
  {
    "molecule": "N=C1N(/N=C/c2ccccn2)/C(=N\\c2ccccc2)C(=S)N1c1ccccc1",
    "system_tested": "HCT-15",
    "assigned_class": "category 1"
  },
  {
    "molecule": "O=C(/C=C/c1ccc(Cl)cc1)c1ccc(Cl)s1",
    "system_tested": "HCT-15",
    "assigned_class": "category 3"
  },
  {
    "molecule": "COC(=O)NCCc1n[nH]c2c1C(=O)C=C(N1CCOCC1)C2=O",
    "system_tested": "HCT-15",
    "assigned_class": "category 3"
  },
  {
    "molecule": "Cc1cn(C2CC(OC(c3ccccc3)(c3ccccc3)c3ccccc3)C(COC(c3ccccc3)(c3ccccc3)c3ccccc3)O2)c(=O)[nH]c1=O (stereo unspecified)",
    "system_tested": "HCT-15",
    "assigned_class": "category 3"
  },
  {
    "molecule": "CN(Cc1cnc2nc(N)nc(N)c2n1)c1ccc(C(=O)NC(CCC(=O)NCC(P(=O)(O)O)P(=O)(O)O)C(=O)O)cc1 (stereo unspecified)",
    "system_tested": "HCT-15",
    "assigned_class": "category 1"
  },
  {
    "molecule": "CCOC(=O)/C=C(/C(=O)OCC)n1cc(C)c(=O)n(Cc2cnnn2COCCOC(C)=O)c1=O",
    "system_tested": "HCT-15",
    "assigned_class": "category 2"
  },
  {
    "molecule": "Cc1cccc(C)c1NC(=O)C(=O)CC(=O)c1sc(Nc2c(C)cccc2C)nc1C",
    "system_tested": "HCT-15",
    "assigned_class": "category 3"
  },
  {
    "molecule": "CC1(C)CCCCCC(C)(CCCO)C1=O (stereo unspecified)",
    "system_tested": "HCT-15",
    "assigned_class": "category 3"
  },
  {
    "molecule": "Cc1nc(C)c(N2CCN(CN)CC2)c(O)n1",
    "system_tested": "HCT-15",
    "assigned_class": "category 3"
  },
  {
    "molecule": "Nc1c(Cl)cc(-c2nc3ccccc3s2)cc1Cl",
    "system_tested": "HCT-15",
    "assigned_class": "category 3"
  },
  {
    "molecule": "Oc1c(C2=N[C@H]3CCCC[C@@H]3N2)ccc2ccccc12",
    "system_tested": "HCT-15",
    "assigned_class": "category 3"
  },
  {
    "molecule": "CN1CCc2c1nc(-c1cccnc1)c1c2N(C)CC1",
    "system_tested": "HCT-15",
    "assigned_class": "category 3"
  },
  {
    "molecule": "CCOC(=O)c1csc(-c2cn(C)c3c2C(=O)C(OC)=CC3=O)n1",
    "system_tested": "HCT-15",
    "assigned_class": "category 2"
  },
  {
    "molecule": "CC(C)=CCC[C@@H](C)C1=C(Nc2ccccc2Cl)C(=O)C(C)=C(O)C1=O",
    "system_tested": "HCT-15",
    "assigned_class": "category 1"
  },
  {
    "molecule": "CCOC(=O)N1CCN(c2c(C)nc(C)nc2O)CC1",
    "system_tested": "HCT-15",
    "assigned_class": "category 3"
  },
  {
    "molecule": "Cc1ccsc1/C(S)=N\\c1ccc(Cl)c(/C=N/OC(C)(C)C)c1",
    "system_tested": "HCT-15",
    "assigned_class": "category 3"
  },
  {
    "molecule": "CC1(C)CCCCCCCCCC2CC2CCC(C)(C)C1=O (stereo unspecified)",
    "system_tested": "HCT-15",
    "assigned_class": "category 2"
  },
  {
    "molecule": "Cc1oc2c(C)c(O)c3c(c2c1C1(C)OCCO1)C(=O)C=C(Cl)C3=O",
    "system_tested": "HCT-15",
    "assigned_class": "category 3"
  },
  {
    "molecule": "OCc1ccc(-c2ccc(-c3ccc(CO)s3)o2)s1",
    "system_tested": "HCT-15",
    "assigned_class": "category 2"
  },
  {
    "molecule": "CN(C)C1(c2cc3ccccc3s2)CCCCC1",
    "system_tested": "HCT-15",
    "assigned_class": "category 3"
  },
  {
    "molecule": "CCOC(=O)Cn1c(=O)c2nc(SC)sc2n(-c2ccc(C)cc2)c1=S",
    "system_tested": "HCT-15",
    "assigned_class": "category 3"
  },
  {
    "molecule": "COc1ccccc1N1C(=O)C2c3[nH]c4ccccc4c3C3CCC(C(C)(C)C)CC3C2C1=O (stereo unspecified)",
    "system_tested": "HCT-15",
    "assigned_class": "category 3"
  },
  {
    "molecule": "Clc1ccc(Nc2nnc(CCCCCCCCc3nnc(Nc4ccc(Cl)cc4)o3)o2)cc1",
    "system_tested": "HCT-15",
    "assigned_class": "category 3"
  },
  {
    "molecule": "Nc1ccc(/N=N/c2ccccc2)cc1",
    "system_tested": "HCT-15",
    "assigned_class": "category 3"
  },
  {
    "molecule": "COc1ccc(C2NC(c3ccc(OC)cc3)C(C)C(=O)C2C)cc1 (stereo unspecified)",
    "system_tested": "HCT-15",
    "assigned_class": "category 3"
  },
  {
    "molecule": "Cc1nc(C)c(Cc2ccccc2)o1",
    "system_tested": "HCT-15",
    "assigned_class": "category 3"
  },
  {
    "molecule": "C=CCN1CCC(O)(c2cc(C(=O)OCC)[nH]c2-c2cc(C)no2)C1 (stereo unspecified)",
    "system_tested": "HCT-15",
    "assigned_class": "category 3"
  },
  {
    "molecule": "CC1(C)OCN(c2ccc(Cl)cc2)Cn2c1nc1ccccc12",
    "system_tested": "HCT-15",
    "assigned_class": "category 1"
  },
  {
    "molecule": "CCCCNC(=S)N/C=C1\\C(=O)Oc2ccccc2C1=O",
    "system_tested": "HCT-15",
    "assigned_class": "category 3"
  },
  {
    "molecule": "COc1c(C(=O)NCCN(CCNC(=O)c2cccc(-c3cccc(C(=O)N(C)C)c3OC)c2OC)CCNC(=O)c2cccc(-c3cccc(C(=O)N(C)C)c3OC)c2OC)cccc1-c1cccc(C(=O)N(C)C)c1OC",
    "system_tested": "HCT-15",
    "assigned_class": "category 3"
  },
  {
    "molecule": "CCOC(=O)/C(C(=O)Nc1ccc(F)cc1)=C(/N)N1CCCC1",
    "system_tested": "HCT-15",
    "assigned_class": "category 1"
  },
  {
    "molecule": "CCN1/C(=C/C#C/C(C)=C\\c2sc3ccccc3[n+]2CC)Sc2ccccc21",
    "system_tested": "HCT-15",
    "assigned_class": "category 1"
  },
  {
    "molecule": "N#CCCN(CCC#N)c1ccc(/C=C2\\N=C(c3ccccc3)N(NC(N)=S)C2=O)cc1",
    "system_tested": "HCT-15",
    "assigned_class": "category 3"
  },
  {
    "molecule": "COc1ccc(NC(=O)CC/C(CC(=O)c2ccco2)=N/Nc2ccc([N+](=O)[O-])cc2[N+](=O)[O-])cc1",
    "system_tested": "HCT-15",
    "assigned_class": "category 3"
  },
  {
    "molecule": "N#CCCN(c1ccc(/C=N/c2nc(-c3ccccc3)cs2)cc1)S(=O)(=O)c1ccccc1",
    "system_tested": "HCT-15",
    "assigned_class": "category 3"
  },
  {
    "molecule": "Cc1ccccc1C1=[N+]([O-])c2ccccc2C1=O",
    "system_tested": "HCT-15",
    "assigned_class": "category 2"
  },
  {
    "molecule": "COC(=O)c1c(C#C[Si](C)(C)C)c(C#C[Si](C)(C)C)c(C#C[Si](C)(C)C)c(C#C[Si](C)(C)C)c1C(=O)OC",
    "system_tested": "HCT-15",
    "assigned_class": "category 3"
  }
]
